System: MDA-MB-231
test-description: Antiproliferative activity against human MDA-MB-231 cells after 3 days by MTT assay
Type: functional, cell-based
measurement-conditions: MDA-MB-231, 72 h
assay-endpoint: log10 of IC50 (log10 of the value in µM)

C=C(C)[C@@H]1CC[C@]2(C(=O)O)CC[C@]3(C)[C@H](CC[C@@H]4[C@@]5(C)CC[C@H](O)C(C)(C)[C@@H]5CC[C@]43C)[C@@H]12 | 1.18
C=C(C)[C@@H]1CC[C@]2(C(=O)O)CC[C@]3(C)[C@H](CC[C@@H]4[C@@]5(C)CCC(=O)C(C)(C)[C@@H]5CC[C@]43C)[C@@H]12 | 0.99
C=C(C)[C@@H]1CC[C@]2(C(=O)NS(=O)(=O)c3ccccc3)CC[C@]3(C)[C@H](CC[C@@H]4[C@@]5(C)CC[C@H](OC(=O)NS(=O)(=O)c6ccccc6)C(C)(C)[C@@H]5CC[C@]43C)[C@@H]12 | -0.04
C=C(C)[C@@H]1CC[C@]2(C(O)=S)CC[C@]3(C)[C@H](CC[C@@H]4[C@@]5(C)CC[C@H](OP(=S)(S)c6ccc(OC)cc6)C(C)(C)[C@@H]5CC[C@]43C)[C@@H]12 (stereo not given in full) | 0.99
C=C(C=O)[C@@H]1CC[C@]2(C(=O)O)CC[C@]3(C)[C@H](CC[C@@H]4[C@@]5(C)CC[C@H](O)C(C)(C)[C@@H]5CC[C@]43C)[C@@H]12 | 0.14
C=CCNC(=O)O[C@H]1CC[C@]2(C)[C@H]3CC[C@@H]4[C@H]5[C@H](C(=C)C)CC[C@]5(C(=O)O)CC[C@@]4(C)[C@]3(C)CC[C@H]2C1(C)C | -0.19
C[C@H](C=O)[C@@H]1CC[C@]2(C(=O)O)CC[C@]3(C)[C@H](CC[C@@H]4[C@@]5(C)CC[C@H](O)C(C)(C)[C@@H]5CC[C@]43C)[C@@H]12 | -0.77
C=C(C)[C@@H]1CC[C@]2(C(=O)O)CC[C@]3(C)[C@H](CC[C@@H]4[C@@]5(C)CC[C@H](OC(=O)NCc6ccccc6)C(C)(C)[C@@H]5CC[C@]43C)[C@@H]12 | -0.35
